These measurements were taken from patent US20040106626A1.

Target: Human thrombin (Homo sapiens)
Construct: converts prothrombin (II) to thrombin (IIa); purchased Calbiochem, La Jolla, Calif
Test: Thrombin assay (chromogenic substrate)
Assay type: biochemical
Conditions: reported only as less than or greater than 30 uM; read-out: Thrombin (II) IC50
Property: IC50

Take a look at these entries with their results.
>  <Compound>
CC(C)Nc1ncc(-c2cc(N)cc(N)c2)n(CC(=O)NCc2ccc(C(=N)N)s2)c1=O [Example 68]

>  <IC50>
> 30 µM

$$$$
>  <Compound>
CC(C)Nc1ncc(-c2cc(N)cc(O)c2)n(CC(=O)NCc2cc(O)c(C(=N)N)c(F)c2)c1=O [Example 180]

>  <IC50>
> 30 µM

$$$$
>  <Compound>
CC[C@H](C)NC(=O)c1cc(N)cc(-c2cnc(N[C@@H](C)CO)c(=O)n2CC(=O)NCc2ccc(C(=N)N)cc2)c1 [Example 208]

>  <IC50>
< 30 µM

$$$$

Fill in: IC50 of CC(C)CNC(=O)c1cc(N)cc(-c2cnc(NC(C)C)c(=O)n2CC(=O)NCc2ccc(C(=N)N)cc2)c1 [Example 27] is ___ > 30 µM

# IC50 lookup, item CC(C)CC(=O)Nc1cc(N)cc(-c2cnc(NC(C)C)c(=O)n2CC(=O)NCc2ccc(C(=N)N)cc2)c1 [Example 112] < 30 µM

For the compound CC(C)Nc1ncc(-c2cc(N)cc(C(=O)N[C@@H](C)c3ccccc3)c2)n(CC(=O)NCc2ccc(C(=N)N)cc2)c1=O [Example 57] , what IC50 is on record? < 30 µM

What IC50 value was documented for this compound, CC(C)Nc1ncc(-c2cc(N)cc(OC3Cc4ccccc4C3)c2)n(CC(=O)NCc2ccc(C(=N)N)cc2)c1=O.O=C(O)C(F)(F)F.O=C(O)C(F)(F)F [Example 218] ? > 30 µM

Consider the compound shown here: CC(C)Nc1ncc(-c2cc(N)cc(NCc3ccsc3)c2)n(CC(=O)NCc2ccc(C(=N)N)cc2)c1=O [Example 103] What is its recorded IC50? > 30 µM

Bench note: what IC50 did CCC(C)CS(=O)(=O)c1cc(N)cc(-c2cnc(NC(C)C)c(=O)n2CC(=O)NCc2ccc(C(=N)N)cc2)c1.O=C(O)C(F)(F)F.O=C(O)C(F)(F)F (stereo not shown) [Example 237] show? > 30 µM

What value of IC50 has been reported for the following compound? CC[C@@H](C)NC(=O)c1cc(N)cc(-c2cnc(NC3CC3)c(=O)n2CC(=O)NCc2ccc(C(=N)N)cc2)c1 [Example 258] < 30 µM

---

Target: Human thrombin (Homo sapiens)
Construct: converts prothrombin (II) to thrombin (IIa); purchased Calbiochem, La Jolla, Calif
Assay: Thrombin assay (chromogenic substrate)
Assay type: biochemical
Settings: reported only as less than or greater than 30 uM; read-out: Thrombin (II) IC50
Property: IC50

The examples below pair each entry with its known result.
>  <Molecule>
CC(C)Nc1ncc(-c2cc(N)cc(C(=O)NCc3ccc(C(=O)O)cc3)c2)n(CC(=O)NCc2ccc(C(=N)N)cc2)c1=O.O=C(O)C(F)(F)F.O=C(O)C(F)(F)F

>  <Property>
IC50

>  <Recorded Value>
> 30 µM

$$$$
>  <Molecule>
CC(C)Nc1ncc(-c2cc(N)cc(NC(=O)CC3CCCC3)c2)n(CC(=O)NCc2ccc(C(=N)N)cc2)c1=O.O=C(O)C(F)(F)F.O=C(O)C(F)(F)F

>  <Property>
IC50

>  <Recorded Value>
< 30 µM

$$$$
>  <Molecule>
CC[C@@H](C)NC(=O)c1cc(N)cc(-c2cnc(NC(C)C)c(=O)n2CC(=O)NCc2c(F)c(O)c(C(=N)N)c(F)c2F)c1.Cl.Cl [Example 185, Dihydrochloride]

>  <Property>
IC50

>  <Recorded Value>
> 30 µM

$$$$
>  <Molecule>
CC(C)Nc1ncc(-c2cc(N)cc(S(=O)(=O)CC3CCCCC3)c2)n(CC(=O)NCc2ccc(C(=N)N)cc2)c1=O.O=C(O)C(F)(F)F.O=C(O)C(F)(F)F

>  <Property>
IC50

>  <Recorded Value>
> 30 µM

$$$$
>  <Molecule>
CC[C@H](C)NC(=O)c1cc(N)cc(-c2cnc(NC(C)C)c(=O)n2CC(=O)NCc2c(F)c(O)c(C(=N)N)c(F)c2F)c1.Cl.Cl

>  <Property>
IC50

>  <Recorded Value>
> 30 µM

$$$$

Which IC50 is listed for CC(C)Nc1ncc(-c2cc(N)cc(NC(=O)C(C)(C)C)c2)n(CC(=O)NCc2ccc(C(=N)N)cc2)c1=O ? < 30 µM

What does the data say about its IC50? Entry: CC(C)Nc1ncc(-c2cc(N)cc(C(=O)NC3CCCCCC3)c2)n(CC(=O)NCc2ccc(C(=N)N)cc2)c1=O < 30 µM

Consider the molecule shown here: CC[C@H](C)NC(=O)c1cc(N)cc(-c2cnc(N[C@H](C)C(C)C)c(=O)n2CC(=O)NCc2ccc(C(=N)N)cc2)c1.O=C(O)C(F)(F)F.O=C(O)C(F)(F)F What is its recorded IC50? < 30 µM

Item CC(C)Nc1ncc(-c2cc(N)cc(NC(=O)c3ccc(N(C)C)cc3)c2)n(CC(=O)NCc2ccc(C(=N)N)cc2)c1=O.O=C(O)C(F)(F)F.O=C(O)C(F)(F)F has what recorded IC50? > 30 µM

For CC(C)Nc1ncc(-c2cc(N)cc(F)c2)n(CC(=O)NCc2ccc(C(=N)N)cc2)c1=O , what is its reported IC50? < 30 µM
